Each entry below carries its recorded viability.
procedure.summary: ovarian cancer cell viability with rucaparib, profiling panel, oncology-focused library, rucaparib conditional (AID 1508598)
condition.info: patient-derived ovarian cancer cells, CellTiter-Glo viability, 144 h; at 0.313 µM; OCI-C5x cells; with rucaparib 10 µM; stronger effect = lower value; 100% = cells with rucaparib alone
The answer is to be given in %; state only the numeric part.

Illustrative cases are given below, each with its answer.
[[record]]
compound = "C#Cc1cccc(Nc2ncnc3cc(OCCOC)c(OCCOC)cc23)c1"
quantity = "viability"
value_measured = 101

[[record]]
compound = "CCc1ccc(CCOc2ccc(CC3SC(=O)NC3=O)cc2)nc1 (stereo unspecified)"
quantity = "viability"
value_measured = 105

[[record]]
compound = "Nc1cccc2c1CN(C1CCC(=O)NC1=O)C2=O (stereo unspecified)"
quantity = "viability"
value_measured = 118

[[record]]
compound = "FC(F)c1nc2ccccc2n1-c1nc(N2CCOCC2)nc(N2CCOCC2)n1"
quantity = "viability"
value_measured = 128

[[record]]
compound = "Cc1ccc(-n2nc(C(C)(C)C)cc2NC(=O)Nc2ccc(OCCN3CCOCC3)c3ccccc23)cc1"
quantity = "viability"
value_measured = 107


IN: Quickly give me recorded viability for "CN1CC[C@H](c2c(O)cc(O)c3c(=O)cc(-c4ccccc4Cl)oc23)[C@H](O)C1"
OUT: 12

###

test.target: NAD(+) hydrolase SARM1 (Homo sapiens)
procedure.summary: SARM1 TIR NADase inhibitors, cell lysate, NAD-Glo luminescence (AID 1508614);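 also: higher remaining NAD means stronger inhibition of SARM1 NADase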
condition.info: SAM-TIR HEK293T lysate NADase, at 1 µM
Active and inactive are the calls of the source.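 The calls were made as follows: active = compound whose remaining NAD level is above about 45 nM (limit read from the data); inactive = the rest.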
Choose one outcome from this list and give only that: t for active, f for inactive

IN: Test call for this compound, please: Clc1ccc(C(Cn2ccnc2)OCc2ccsc2Cl)c(Cl)c1 (configuration not stated)
OUT: f

IN: Answer briefly: the call reported for CCN1C(=O)NC(c2ccccc2)C1=O (configuration not stated) in this assay.
OUT: f

IN: Outcome? "COc1c2ccoc2cc2oc(=O)ccc12"
OUT: f

IN: GET /call?item= "C=CCNC(N)=S" returns the recorded outcome of this test.
OUT: f

IN: For this compound, state the assay outcome: "CC(=O)O[C@H]1C(=O)[C@@]2(C)[C@H]([C@H](OC(=O)c3ccccc3)[C@]3(O)C[C@H](OC(=O)[C@H](O)[C@@H](NC(=O)c4ccccc4)c4ccccc4)C(C)=C1C3(C)C)[C@]1(OC(C)=O)CO[C@@H]1C[C@@H]2O"
OUT: f

IN: Could you kindly confirm the outcome this assay logged for "CCN1CCN(C(=O)N[C@@H](C(=O)N[C@@H]2C(=O)N3[C@@H]2SC(C)(C)[C@@H]3C(=O)O)c2ccccc2)C(=O)C1=O" ?
OUT: f

IN: In this assay, the call recorded for "Nc1nc(Cl)nc2c1ncn2[C@@H]1O[C@H](CO)[C@@H](O)[C@@H]1F" was what?
OUT: f

IN: How was "CN1CCC[C@@H]1Cc1c[nH]c2ccc(CCS(=O)(=O)c3ccccc3)cc12" classified in this test?
OUT: f

###

test.target: Mitogen-activated protein kinase 7 (Homo sapiens) (UniProt Q13164)
Sequence (Q13164 whole entry, looked up, the tested form may be a part): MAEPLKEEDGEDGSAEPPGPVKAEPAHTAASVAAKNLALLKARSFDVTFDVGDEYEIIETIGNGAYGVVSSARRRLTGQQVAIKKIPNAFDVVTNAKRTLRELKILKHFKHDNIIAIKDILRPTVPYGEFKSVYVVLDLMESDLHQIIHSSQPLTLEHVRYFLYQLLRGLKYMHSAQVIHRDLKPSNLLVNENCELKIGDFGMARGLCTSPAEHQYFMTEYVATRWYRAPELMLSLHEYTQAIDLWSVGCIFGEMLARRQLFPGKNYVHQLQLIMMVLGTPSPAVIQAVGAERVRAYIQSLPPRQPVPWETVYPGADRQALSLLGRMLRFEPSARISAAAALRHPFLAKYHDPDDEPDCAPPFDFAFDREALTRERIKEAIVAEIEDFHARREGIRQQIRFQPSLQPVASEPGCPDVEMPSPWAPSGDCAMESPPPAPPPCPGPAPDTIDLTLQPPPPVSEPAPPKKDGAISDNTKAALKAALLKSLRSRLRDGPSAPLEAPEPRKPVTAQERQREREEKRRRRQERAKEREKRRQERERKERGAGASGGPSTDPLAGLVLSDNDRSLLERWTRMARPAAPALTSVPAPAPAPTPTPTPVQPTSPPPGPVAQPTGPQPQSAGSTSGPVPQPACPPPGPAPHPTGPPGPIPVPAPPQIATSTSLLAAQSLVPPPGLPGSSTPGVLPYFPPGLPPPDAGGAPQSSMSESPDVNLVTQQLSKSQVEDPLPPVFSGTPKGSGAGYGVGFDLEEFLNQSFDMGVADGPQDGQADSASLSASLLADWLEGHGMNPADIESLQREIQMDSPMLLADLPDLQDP
procedure.summary: ERK5 transactivation activators in reporter cells, primary screen, cell-based, HTS (AID 1508626);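 also: luciferase driven by Gal4-ERK5 fusion binding five Gal4 sites before minimal TATA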
condition.info: HeLa Gal4-ERK5 transactivation, 18 h, at 5 µM
The source made the active and inactive calls.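 How the source made its calls: active means luciferase signal above three times the same-plate solvent-only control wells; inactive means the rest.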
Can you answer with just one of these options? active, inactive

[[record]]
molecule = "COc1cc2c3cc1Oc1c(OC)c(OC)cc4c1[C@@H](Cc1ccc(O)c(c1)Oc1ccc(cc1)C[C@@H]3N(C)CC2)N(C)CC4"
class = "inactive"

[[record]]
molecule = "CC(=O)O[C@H]1C[C@@]2(C)[C@@H](C[C@@H](O)[C@H]3[C@@]4(C)CC[C@@H](O)[C@@H](C)[C@@H]4CC[C@@]32C)/C1=C(\\CCC=C(C)C)C(=O)O"
class = "inactive"

[[record]]
molecule = "CC(=O)O[C@H]1C[C@@H](OC(C)=O)C(C)(C)C2CC(=O)[C@]3(C)C(CC[C@@]4(C)[C@H](c5ccoc5)OC(=O)[C@H]5O[C@]543)[C@]21C (stereo not given in full)"
class = "inactive"

[[record]]
molecule = "C1N2CN3CN1CN(C2)C3"
class = "inactive"

[[record]]
molecule = "CCCC(CCC)C(=O)O"
class = "inactive"


IN: Query: recorded result category for "O=C(CCc1ccc(O)cc1)c1c(O)cc(O)cc1O" in this test
OUT: inactive

IN: Would you mind telling me which call this test gave "O=C(/C=C/c1ccc(O)c(O)c1)OCCc1ccccc1" ?
OUT: inactive

IN: What was the test verdict on "COC1=CC(=O)C=C(OC)C1=O" ?
OUT: inactive

###

Each item that follows carries a reported remaining activity.
Test system: Aerobactin synthetase IucA (Klebsiella pneumoniae)
procedure.summary: IucA aerobactin synthetase inhibitors, biochemical, Tocris library, absorbance (AID 1345561);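 also: 100% = enzyme without compound and 0% = no enzyme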
condition.info: purified IucA enzyme assay, absorbance (OD) read-out; stronger effect = lower value; concentration not given here
Give just the number in %; leave the unit off.

[[record]]
compound = "CN(C)C/C=C(/c1ccc(Br)cc1)c1cccnc1"
value_measured = 124

[[record]]
compound = "CCc1ccc(OCc2ccccc2C(=O)Nc2ccc3nc(C)cc(N)c3c2)cc1"
value_measured = 108

[[record]]
compound = "CC(C)NCC(O)COc1cccc2ccccc12 (configuration not stated)"
value_measured = 97.5

[[record]]
compound = "CC1(C)C(=O)NC2=C1C(=O)C(=O)c1ccccc12"
value_measured = 80.1

[[record]]
compound = "COc1ccc2cc([C@H](C)C(=O)O)ccc2c1"
value_measured = 75.8


Consider the additional compound presented here.
IN: Quote remaining activity reported for "C=CCn1c(=O)n([C@@H]2O[C@H](CO)[C@@H](O)[C@H]2O)c2nc(N)[nH]c(=O)c21" please.
OUT: 101

###

procedure.summary: glucagon-like peptide 1 release enhancers, primary assay, NCI-H716 cell line, NPC library (AID 1117341)
condition.info: NCI-H716 cells, at 10 µM, stronger effect = higher value
Parameter GLP1 secretion stimulation: see the listing below.
Please reply with the bare figure in % and do not write the unit itself.

[[record]]
molecule = "OC1C(O)C(O)C(O)C(O)C1O (centres undefined)"
value_measured = -2.7

[[record]]
molecule = "Cc1ccc(Nc2nccc(N(C)c3ccc4c(C)n(C)nc4c3)n2)cc1S(N)(=O)=O"
value_measured = -3.5

[[record]]
molecule = "CC(C)C[C@H](NC(=O)[C@H](CCc1ccccc1)NC(=O)CN1CCOCC1)C(=O)N[C@@H](Cc1ccccc1)C(=O)N[C@@H](CC(C)C)C(=O)[C@@]1(C)CO1"
value_measured = 5.2


IN: Indicate its recorded GLP1 secretion stimulation; the molecule in question is "FC(F)(F)c1ccccc1-n1ccnc1"
OUT: -1.9

IN: Indicate its recorded GLP1 secretion stimulation; the molecule in question is "CC(C)C[C@H](NC(=O)[C@H](Cc1ccccc1)NC(=O)c1cnccn1)B(O)O"
OUT: 1.6

IN: Indicate the recorded GLP1 secretion stimulation value for this molecule: "NCCCC(O)(P(=O)(O)O)P(=O)(O)O"
OUT: 1.2

IN: Provide GLP1 secretion stimulation value for the following molecule: "Nc1c[n+](N2CCOCC2)no1"
OUT: -2.6

IN: Quick one: give measured GLP1 secretion stimulation for "Cn1ccc2cc3c(cc21)CCN3C(=O)Nc1cccnc1"
OUT: 0.1

IN: Tell us which GLP1 secretion stimulation value is on record for "CCOC(=O)Nc1ccc(NCc2ccc(F)cc2)nc1N"
OUT: -1.1

IN: Recall and state the measured GLP1 secretion stimulation for "O=P(O)(O)C(O)(Cn1ccnc1)P(=O)(O)O" .
OUT: -0.1

IN: Input "CN=C(NC#N)NCCSCc1csc(N=C(N)N)n1" , output reported GLP1 secretion stimulation.
OUT: 0

IN: Please give the documented GLP1 secretion stimulation of "CC(=O)OCC(=O)[C@@]12N=C(C)O[C@@H]1C[C@H]1[C@@H]3CCC4=CC(=O)C=C[C@]4(C)[C@H]3[C@@H](O)C[C@@]12C"
OUT: 1.7

###

procedure.summary: suppressors of polyQ aggregation in yeast, 75Q-TubU reporter (AID 1593)
condition.info: Yeast 75Q polyglutamine aggregation reporter
Bridge positions count the residues as written; N and C are the ends. Square brackets hold non-standard residues; d marks the D form. Peptide text beside a SMILES is read from it. * marks the point of attachment. Octanoyl(6-Me) = CCC(C)CCCCC(=O)*; Dab = NCC[CH](N)C(=O)O
quantity: score
// keep it numeric: no unit symbol after the value

[[record]]
compound = "COc1c(OC)c2occc2c2oc(=O)ccc12"
value_measured = 0.45

[[record]]
compound = "O=C(O)c1cc(=O)c2cccc(O)c2[nH]1"
value_measured = 0.98

[[record]]
compound = "N#Cc1ccc2c(c1)N(CCCN1CCC(O)CC1)c1ccccc1S2"
value_measured = 1.21


IN: Dear colleague, please send me the reported score for CC(C(=O)O)c1ccc(-c2ccccc2)c(F)c1 (stereo not drawn) when you can.
OUT: 0

IN: Output score of COC(=O)C1=C(C)NC(C)=C(C(=O)OCCN(C)Cc2ccccc2)C1c1cccc([N+](=O)[O-])c1 (stereo not drawn)
OUT: 1.16

IN: Note down score recorded for CCC(C)CCCCC(=O)NC(CCN)C(=O)NC(C(=O)NC(CCN)C(=O)NC1CCNC(=O)C(C(C)O)NC(=O)C(CCN)NC(=O)C(CCN)NC(=O)C(CC(C)C)NC(=O)C(Cc2ccccc2)NC(=O)C(CCN)NC1=O)C(C)O (stereo not drawn) ({Octanoyl(6-Me)}-[Dab]T[Dab][Dab][Dab]FL[Dab][Dab]T; lactam 4-C; configuration not given here)
OUT: 0.73

IN: Return score for the following compound: "CC(C)=CCC/C(C)=C/CO"
OUT: 1.12

IN: Fill in reported score for this entry: CCCC(=O)Nc1ccc(OCC(O)CNC(C)C)c(C(C)=O)c1 (stereo not drawn)
OUT: 1.34
